The measurements presented in this section are drawn from patent US20240301067A1.

- target entity: T1, Mouse PD-1 extracellular domain, hFc tag (mouse, UniProt Q02242 25-169)
- T1 construct: extracellular domain; also called mPro1.ECD.hFc; not shown: human Fc tag at C-terminus
- T1 sequence (looked up): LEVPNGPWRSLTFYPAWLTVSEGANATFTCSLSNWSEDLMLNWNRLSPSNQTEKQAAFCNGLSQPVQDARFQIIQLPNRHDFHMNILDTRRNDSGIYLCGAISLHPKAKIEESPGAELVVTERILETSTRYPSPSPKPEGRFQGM
- run description: SPR Biacore 8K; PD-1-hFc captured on anti-human Fc chip, VHH injected; 1:1 fit
recorded endpoint: koff (s⁻¹)

[P] AP17R1-2H2-Z1-R1-14B3 (VHH, not shown: his- and c-Myc-tag from vector pETbac) VHH: QVQLVESGGGVVQPGGSLRLSCAASDSIDSLVNMGWYRQAPGKQRELVALIARYITHYADFVKGRFTISRDNSKNTLYLQMNSLRAEDTAVYYCYARNIIVDYWGQGTLVTVSS
[Q] AP17R1-2H2-Z1-R1-4D8 (VHH, not shown: his- and c-Myc-tag from vector pETbac) VHH: QVQLVESGGGVVQPGGSLRLSCAASDSIQSLVNMGWYRQAPGKQRELVALIANYITHYADFVKGRFTISRDNSKNTLYLQMNSLRAEDTAVYYCYARNIIVDYWGQGTLVTVSS
Q: Just curious, which one has the larger koff reading, P or Q ? Could you answer with the label of the item you picked?
Ans: Q
